All figures here come from patent US20240287177A1.

- MEASURED ON: recombinant human NKp30 extracellular domain, his-tagged (human) (UniProt O14931)
- Sequence (O14931 19-135): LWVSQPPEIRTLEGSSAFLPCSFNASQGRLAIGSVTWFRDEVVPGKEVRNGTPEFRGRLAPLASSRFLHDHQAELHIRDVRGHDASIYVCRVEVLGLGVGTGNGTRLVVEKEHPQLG
- METHOD NOTES: BLI, SEEDbody on anti-human Fc sensors, soluble NKp30, 1:1 fit
MEASURED METRIC: kon (M⁻¹ s⁻¹)
Supply the numeric figure in M⁻¹ s⁻¹, leaving out any unit text.

Please fill in: kon reported for VHH11 SEEDbody eff- (bispecific antibody, part only; not given: silenced SEED Fc and cetuximab Fab, V domains shown, not shown: another chain or arm of the molecule; a dimerising Fc or GST; small tags and cut ends) VHH: DVQLQESGGGLVQAGGSLRLSCAASGRTFSSDFMGWFRQAPGKEREFVAAIHWSGGSTSYADSVKGRFTISRDNAKDTVYLLMNSLKLEDTAVYYCAAEIRWLTTGWANLGSWGQGTQVTVSS = 405000

Please fill in: kon reported for VHH6 SEEDbody eff- (bispecific antibody, part only; not given: silenced SEED Fc and cetuximab Fab, V domains shown, not shown: another chain or arm of the molecule; a dimerising Fc or GST; small tags and cut ends) VHH: DVQLQESGGGLVQTGGSLRLSCAASGLPFSKYAIAWFRQAPGKESEFLVVVSWSGDKFYQDNMKGRCTISRDNAKNTAYLQINSLQPEDTAVYYCAASGSYPVTDRYFYNFWGQGTQVTVSS = 442000

Please fill in: kon reported for VHH12 SEEDbody eff- (bispecific antibody, part only; not given: silenced SEED Fc and cetuximab Fab, V domains shown, not shown: another chain or arm of the molecule; a dimerising Fc or GST; small tags and cut ends) VHH: DVQLQESGGGLVQAGGSLRLSCAASGRTFSSDFMGWFRQAPGKEREFVAAIHWSGGSRSYADSVKGRFTISRDNAKDTVYLLMNSLKLEDTAVYYCAAEIRWQTTGWANLGSWGQGTQVTVSS = 914000

Please fill in: kon reported for VHH9 SEEDbody eff- (bispecific antibody, part only; not given: silenced SEED Fc and cetuximab Fab, V domains shown, not shown: another chain or arm of the molecule; a dimerising Fc or GST) VHH: DVQLQESGGGLVQAGGSLRLSCAASGRGGASYAMGWFRQAPGKEREFVAAISWTGDTTYNVDSVKGRFTISSDNAKNPVYLDMSSLKPEDTAVYYCAAAHWTRVVAKGAMADEKKYEYWGQGTQVTVSS = 376000
